Procedure details: decreased DLD-1 cellular survival, CellTiter-Glo luminescent readout, NPC compound collection, primary HTS (AID 1117346)
Particulars: DLD-1 viability, CellTiter-Glo luminescence; at 20 µM (top of the series)
Activity calls are given as the source filed them.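 Rule for the calls: active = compounds that lower survival of DLD-1 colon cancer cells in the luminescence readout, no cutoff given; inactive = the rest.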
Measured quantity: viability decrease (inhibition)

A selection of reference data follows.
CCN(Cc1ccncc1)C(=O)C(CO)c1ccccc1 (stereo not drawn): 3.8% (inactive)
CC(C)=CCC/C(C)=C/CC/C(C)=C/C(=O)OCC(=O)[C@@]1(O)CC[C@H]2[C@@H]3CCC4=CC(=O)C=C[C@]4(C)[C@H]3[C@@H](O)C[C@@]21C: 88.5% (active)
CC(=O)OCC(=O)Nc1cc(C#N)cc(NC(=O)COC(C)=O)c1Cl: 1.6% (inactive)
CN(C)CCCOC1(Cc2ccccc2)CCCCCC1: -33.1% (inactive)
CC(C)[N+](C)(C)CC(O)COc1cccc2ccccc12 (stereo not drawn): 5.7% (inactive)

The record that follows has no viability decrease (inhibition) shown yet.
Qu. # return recorded viability decrease (inhibition) for entry N[C@@H](Cc1cc(I)c(Oc2cc(I)c(O)c(I)c2)c(I)c1)C(=O)O
Ans. -2% (inactive)

###

Measured liver cell % of control, listed per entry for reference.
Procedure details: kinase inhibitors against Plasmodium liver-stage infection, cell-based, known kinase inhibitor set, luminescence, hepatoma host viability (AID 624392);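 note: infected cells incubated roughly two days before readout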
Particulars: Plasmodium liver stage in hepatoma cells, luciferase luminescence, concentration not given here; measured here: host liver cell viability
Please don't drop the unit; write it after the number.

A selection of reference data follows.
Fc1ccc(-c2nc3n(c2-c2ccncc2)CCS3)cc1: 122%
Nc1ncnc2occ(-c3ccc(NC(=O)Nc4cccc(C(F)(F)F)c4)cc3)c12: 49.9%
O=C1NC(=O)C(c2ccc(Cl)cc2)=C1Nc1ccc(Cl)c(C(=O)O)c1: 104%
CCN1CCC(CC(=O)Nc2n[nH]c3nc(-c4cccs4)c(Br)cc23)CC1: 76.8%
COc1cc(N2CCN(C(C)C)CC2)ccc1Nc1nc(Nc2ccc(F)cc2C(=O)NC[C@@H](O)CO)c2cc[nH]c2n1: 85%

Qu. # return recorded liver cell % of control for entry Nc1nccc(C#Cc2cncnc2Nc2ccc(OCc3cccc(F)c3)c(Cl)c2)n1
Ans. 107%

###

Study target: Calcium-activated potassium channel subunit alpha-1 (Homo sapiens) + Leucine-rich repeat-containing protein 26 (Homo sapiens) (UniProt Q12791+Q2I0M4)
Sequence (Q2I0M4 whole entry, looked up, one chain of several): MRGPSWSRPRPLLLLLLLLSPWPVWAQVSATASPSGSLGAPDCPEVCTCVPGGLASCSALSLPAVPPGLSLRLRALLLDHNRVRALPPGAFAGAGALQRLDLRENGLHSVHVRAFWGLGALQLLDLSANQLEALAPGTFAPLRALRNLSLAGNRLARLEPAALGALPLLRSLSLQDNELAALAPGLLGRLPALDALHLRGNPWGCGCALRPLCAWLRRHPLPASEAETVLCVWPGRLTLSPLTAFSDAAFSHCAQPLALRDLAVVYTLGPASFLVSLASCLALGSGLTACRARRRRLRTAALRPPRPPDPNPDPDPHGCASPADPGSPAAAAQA
Procedure details: modulators of BK channel variants, profiling panel, selectivity assay, cell-based, U2OS BacMam, thallium flux, beta subunits (AID 1259406);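 note: initial slope of Thallos dye fluorescence rise after thallium is added; log ratio against the mean of 0.3% DMSO vehicle wells on the same plate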
Particulars: F380Y/Slo1WT/gamma1, at 30 µM
Measured log fold change Tl+ flux, listed per entry for reference.
Response field accepts a number only; no unit should be typed.

A selection of reference data follows.
c1ccc2c(c1)CCCC2C1=NCCN1 (stereo unspecified): 0.0123
CN(C)CCC=C1c2ccccc2CCc2ccccc21: 0.0267
CC1Cc2ccccc2N1NC(=O)c1ccc(Cl)c(S(N)(=O)=O)c1 (stereo unspecified): -0.0185

Qu. # return recorded log fold change Tl+ flux for entry CC(=O)OCC(=O)[C@@]1(O)CC[C@H]2[C@@H]3CCC4=CC(=O)C=C[C@]4(C)[C@H]3[C@@H](O)C[C@@]21C
Ans. 0.072

Qu. # return recorded log fold change Tl+ flux for entry Nc1c2c(nc3ccccc13)CCCC2
Ans. 0.00974

Qu. # return recorded log fold change Tl+ flux for entry CCS(=O)(=O)CCn1c([N+](=O)[O-])cnc1C
Ans. -0.0103

Qu. # return recorded log fold change Tl+ flux for entry c1ccc2[nH]c(-c3cscn3)nc2c1
Ans. 0.048

Qu. # return recorded log fold change Tl+ flux for entry C[C@]12C=CC(=O)C=C1CC[C@@H]1[C@@H]2C(=O)C[C@@]2(C)[C@H]1CC[C@]2(O)C(=O)CO
Ans. -0.00874

Qu. # return recorded log fold change Tl+ flux for entry CCc1cccc2c3c([nH]c12)C(CC)(CC(=O)O)OCC3 (stereo unspecified)
Ans. 0.00932

Qu. # return recorded log fold change Tl+ flux for entry Cc1ncc([N+](=O)[O-])n1CC(C)O (stereo unspecified)
Ans. -0.0293

Qu. # return recorded log fold change Tl+ flux for entry S=c1nc[nH]c2nc[nH]c12
Ans. -0.0406
